- Tested on: HeLa Kyoto
- assay: solubility change mitosis vs G1/S (difference of NP-40 vs SDS log2 ratios) (log2 ratio difference); higher = more soluble in mitosis
Recorded solubility change mitosis (log2) by entry
Answer with the value's number alone.

# record sequence, measure name, measured value
measured = [
    ("MAGPGPGPGDPDEQYDFLFKLVLVGDASVGKTCVVQRFKTGAFSERQGSTIGVDFTMKTLEIQGKRVKLQIWDTAGQERFRTITQSYYRSANGAILAYDITKRSSFLSVPHWIEDVRKYAGSNIVQLLIGNKSDLSELREVSLAEAQSLAEHYDILCAIETSAKDSSNVEEAFLRVATELIMRHGGPLFSEKSPDHIQLNSKDIGEGWGCGC [RAB43]", "solubility change mitosis (log2)", 0.296),
]

Continue with the sequence presented below.
Value lookup for solubility change mitosis (log2); key = MAAPAPGLISVFSSSQELGAALAQLVAQRAACCLAGARARFALGLSGGSLVSMLARELPAAVAPAGPASLARWTLGFCDERLVPFDHAESTYGLYRTHLLSRLPIPESQVITINPELPVEEAAEDYAKKLRQAFQGDSIPVFDLLILGVGPDGHTCSLFPDHPLLQEREKIVAPISDSPKPPPQRVTLTLPVLNAARTVIFVATGEGKAAVLKRILEDQEENPLPAALVQPHTGKLCWFLDEAAARLLTVPFEKHSTL [PGLS]
0.237

* * *

- Tested on: HeLa Kyoto
- assay: melting temperature (median over replicates), in situ; higher = more thermally stable
- condition info: cell cycle stage: mitosis
Recorded melting temperature values for a group of sequences are listed next.
API: value field is a number in °C; no unit string.

# record sequence, melting temperature / °C
data = [
    ("MESPASSQPASMPQSKGKSKRKKDLRISCMSKPPAPNPTPPRNLDSRTFITIGDRNFEVEADDLVTISELGRGAYGVVEKVRHAQSGTIMAVKRIRATVNSQEQKRLLMDLDINMRTVDCFYTVTFYGALFREGDVWICMELMDTSLDKFYRKVLDKNMTIPEDILGEIAVSIVRALEHLHSKLSVIHRDVKPSNVLINKEGHVKMCDFGISGYLVDSVAKTMDAGCKPYMAPERINPELNQKGYNVKSDVWSLGITMIEMAILRFPYESWGTPFQQLKQVVEEPSPQLPADRFSPEFVDFTAQCLRKNPAERMSYLELMEHPFFTLHKTKKTDIAAFVKEILGEDS [MAP2K3]", 50.1),
    ("MRLGPRTAALGLLLLCAAAAGAGKAEELHYPLGERRSDYDREALLGVQEDVDEYVKLGHEEQQKRLQAIIKKIDLDSDGFLTESELSSWIQMSFKHYAMQEAKQQFVEYDKNSDDTVTWDEYNIQMYDRVIDFDENTALDDAEEESFRKLHLKDKKRFEKANQDSGPGLSLEEFIAFEHPEEVDYMTEFVIQEALEEHDKNGDGFVSLEEFLGDYRWDPTANEDPEWILVEKDRFVNDYDKDNDGRLDPQELLPWVVPNNQGIAQEEALHLIDEMDLNGDKKLSEEEILENPDLFLTSEATDYGRQLHDDYFYHDEL [RCN2]", 55.7),
]

What value of melting temperature has been recorded for this entry: MADPWQECMDYAVTLARQAGEVVCEAIKNEMNVMLKSSPVDLVTATDQKVEKMLISSIKEKYPSHSFIGEESVAAGEKSILTDNPTWIIDPIDGTTNFVHRFPFVAVSIGFAVNKKIEFGVVYSCVEGKMYTARKGKGAFCNGQKLQVSQQEDITKSLLVTELGSSRTPETVRMVLSNMEKLFCIPVHGIRSVGTAAVNMCLVATGGADAYYEMGIHCWDVAGAGIIVTEAGGVLMDVTGGPFDLMSRRVIAANNRILAERIAKEIQVIPLQRDDED [IMPA1]
61.1

Origin of measurements: the supplement of paper PMC5998384
